- target or system: GRK2 (Homo sapiens, UniProt P25098)
- Sequence (P25098 whole entry): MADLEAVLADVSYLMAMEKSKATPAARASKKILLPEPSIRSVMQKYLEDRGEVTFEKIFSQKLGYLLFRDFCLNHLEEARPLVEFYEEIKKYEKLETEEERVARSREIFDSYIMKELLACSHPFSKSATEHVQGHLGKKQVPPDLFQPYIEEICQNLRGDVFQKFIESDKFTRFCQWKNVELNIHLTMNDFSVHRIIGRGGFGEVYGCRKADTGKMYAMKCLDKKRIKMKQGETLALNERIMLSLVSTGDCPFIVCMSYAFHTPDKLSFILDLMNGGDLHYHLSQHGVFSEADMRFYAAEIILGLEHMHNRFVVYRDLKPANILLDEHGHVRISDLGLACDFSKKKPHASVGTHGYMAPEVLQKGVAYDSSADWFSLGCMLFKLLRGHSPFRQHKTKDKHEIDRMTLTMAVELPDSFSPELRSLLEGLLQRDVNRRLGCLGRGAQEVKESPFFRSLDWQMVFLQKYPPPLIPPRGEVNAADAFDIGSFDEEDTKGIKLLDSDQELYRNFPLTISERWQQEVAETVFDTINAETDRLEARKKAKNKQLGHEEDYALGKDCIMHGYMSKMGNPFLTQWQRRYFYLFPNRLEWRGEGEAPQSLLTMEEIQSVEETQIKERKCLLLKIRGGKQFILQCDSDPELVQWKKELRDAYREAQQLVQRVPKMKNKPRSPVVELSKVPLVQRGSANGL
- test method notes: biochemical
- Procedure: hGRK2 LANCE Ultra In Vitro Assay G-protein coupled receptor kinases (GR Kinases) desensitize activated G-protein coupled receptors (GPCRs), by phosphorylation of cytoplasmic loops or carboxyl-terminal tails of GPCRs. GRK2 is one of the 6 different GR kinases and is implicated in heart failure and diabetes. This assay is sensitive and requires as low as 10 nM enzyme, in a total volume of 10 μL. […]
Each entry below lists one item and its recorded IC50 value.

{"columns": ["molecule", "IC50, nM"],
 "data": [
  ["COc1cccc(Cn2cnc3ccc(-c4cn[nH]c4)c(Cl)c3c2=O)c1 [Compound 7]", 16],
  ["COc1cccc(Cn2cnc3ccc(-c4cn[nH]c4)c(F)c3c2=O)c1 [Compound 3]", 7],
  ["COc1cccc(Cn2cnc3ccc(-c4cn[nH]c4)c(OC)c3c2=O)c1 [Compound 5]", 9]
]}
